experiment: Water solubility of trehalose at ambient temperature (Experiment 1); format: physicochemical; details: water, 25 °C, 24 hours, anhydrous form; read-out: trehalose content (g) dissolved in 100 g water
Experimental endpoint: solubility thermodynamic at 24 h (mg/mL)
API: value field is a number in mg/mL; no unit string.

Task item: Please give the documented solubility thermodynamic at 24 h of OC[C@H]1O[C@H](O[C@H]2O[C@H](CO)[C@@H](O)[C@H](O)[C@H]2O)[C@H](O)[C@@H](O)[C@@H]1O [Trehalose, α,α-trehalose]
Reply: 773

----------
assay: Water solubility of trehalose at ambient temperature (Experiment 1); assay type: physicochemical; settings: water, 40 °C, 24 hours, anhydrous form; read-out: trehalose content (g) dissolved in 100 g water
Experimental endpoint: solubility thermodynamic at 24 h (mg/mL)
API: value field is a number in mg/mL; no unit string.

Task item: Please give the documented solubility thermodynamic at 24 h of OC[C@H]1O[C@H](O[C@H]2O[C@H](CO)[C@@H](O)[C@H](O)[C@H]2O)[C@H](O)[C@@H](O)[C@@H]1O
Reply: 1090

Just for reference, patent US5892026A is where these values come from.
